- target-system: CTLA-4 (human)
- Sequence (chain, as listed by the source): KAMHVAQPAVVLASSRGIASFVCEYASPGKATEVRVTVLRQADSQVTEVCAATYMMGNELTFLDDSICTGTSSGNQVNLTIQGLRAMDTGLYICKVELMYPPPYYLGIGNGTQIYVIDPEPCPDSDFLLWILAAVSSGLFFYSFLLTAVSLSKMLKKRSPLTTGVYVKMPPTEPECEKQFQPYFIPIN
- method-description: flow cytometry, cells expressing CTLA-4
parameter: parental ratio
Answer using only a numeral; do not append any unit.

# example entries with known answers
variant CD80 I67F/L70R/E88G/A91G/I118V/T120S/T130A (Fc fusion) VIHVTKEVKEVATLSCGHNVSVEELAQTRIYWQKEKKMVLTMMSGDMNIWPEYKNRTIFDITNNLSFVIRALRPSDEGTYECVVLKYGKDGFKREHLAEVTLSVKADFPTPSISDFEVPSSNIRRIICSASGGFPEPHLSWLENGEELNAINTTVSQDPETELYAVSSKLDFNMTTNHSFMCLIKYGHLRVNQTFNWNTTKQEHFPDN :: 0.03
variant CD80 A91G/L102S (Fc fusion) VIHVTKEVKEVATLSCGHNVSVEELAQTRIYWQKEKKMVLTMMSGDMNIWPEYKNRTIFDITNNLSIVILALRPSDEGTYECVVLKYEKDGFKREHLAEVTSSVKADFPTPSISDFEIPTSNIRRIICSTSGGFPEPHLSWLENGEELNAINTTVSQDPETELYAVSSKLDFNMTTNHSFMCLIKYGHLRVNQTFNWNTTKQEHFPDN :: 0.03

Next up:
Task: Entry variant CD80 K36G/K37Q/M38I/L40M (Fc fusion) VIHVTKEVKEVATLSCGHNVSVEELAQTRIYWQKEGQIVMTMMSGDMNIWPEYKNRTIFDITNNLSIVILALRPSDEGTYECVVLKYEKDAFKREHLAEVTLSVKADFPTPSISDFEIPTSNIRRIICSTSGGFPEPHLSWLENGEELNAINTTVSQDPETELYAVSSKLDFNMTTNHSFMCLIKYGHLRVNQTFNWNTTKQEHFPDN has what parental ratio?
Result: 0.03
